src = patent US8680320B2

Experiment: Fluorescence titration of cadmium ions in cuvettes
Format: binding
Conditions: 50 mM MOPS pH 7, metal titrated up to 100 μM
Measurement Label: Kd (nM)
Form entry: value (nM) — number only.

[Q] Data request, read-out Kd, for O=C(O)COc1ccccc1OCCOc1cc(-c2cc3ccc(C(=O)O)cc3[nH]2)ccc1N(CC(=O)O)CC(=O)O
[A] 1200
